B1: Ribonuclease HI, P0A7Y4 (parent)
chain: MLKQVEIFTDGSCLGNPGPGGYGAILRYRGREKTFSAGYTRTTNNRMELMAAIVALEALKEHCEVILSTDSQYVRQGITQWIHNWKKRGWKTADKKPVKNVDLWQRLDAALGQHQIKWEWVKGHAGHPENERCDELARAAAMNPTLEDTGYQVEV

Variants of: B1
measurement-setup: Escherichia coli (strain K12); pH 5.5; 25 °C; Urea; CD; Sodium acetate 10 mM; NaCl 0.1 M; reversible: yes; structure 2RN2; whole UniProt chain shown
measurement-type: ddG of mutation (higher = less stable) (kcal/mol)
Number only, in kcal/mol; omit the unit.

Solved cases below.
S68G ... 2.2
S68V ... -1.29
S68A ... -0.19

Would you kindly look at the next entry?
ddG of mutation (higher = less stable) for S68T is -0.1
